Value source: patent US12344621B2

Measured Kb of individual entries
# experimental target: human CGRP receptor (Homo sapiens, UniProt O60894+Q16602)
# Construct: SK-N-MC endogenously expressing the human CGRP receptor; endogenous in cells; host or cells: SK-N-MC human neuroblastoma cells
# Sequence (Q16602 23-461): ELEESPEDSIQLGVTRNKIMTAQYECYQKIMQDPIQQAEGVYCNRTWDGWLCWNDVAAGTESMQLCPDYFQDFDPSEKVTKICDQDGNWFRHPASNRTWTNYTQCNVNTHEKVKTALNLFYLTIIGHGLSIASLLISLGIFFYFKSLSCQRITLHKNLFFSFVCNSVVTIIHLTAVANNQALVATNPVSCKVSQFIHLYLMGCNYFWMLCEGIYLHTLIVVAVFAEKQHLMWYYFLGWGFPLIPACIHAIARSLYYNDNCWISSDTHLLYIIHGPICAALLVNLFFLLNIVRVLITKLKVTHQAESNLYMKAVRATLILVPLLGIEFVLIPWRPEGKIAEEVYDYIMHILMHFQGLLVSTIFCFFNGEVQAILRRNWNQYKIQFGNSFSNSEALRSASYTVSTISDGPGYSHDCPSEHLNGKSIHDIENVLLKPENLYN
# Sequence (O60894 27-148): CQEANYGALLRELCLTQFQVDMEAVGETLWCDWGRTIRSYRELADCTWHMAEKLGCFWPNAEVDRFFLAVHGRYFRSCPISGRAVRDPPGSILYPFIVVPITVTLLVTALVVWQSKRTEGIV
# protocol notes: cAMP functional assay (HTRF cAMP dynamic-2) in SK-N-MC cells
# Assay type: cell-based
# run conditions: SK-N-MC cells endogenously expressing human CGRP receptor; challenge with EC80 human CGRP (0.3 nM); functional pKb converted from pIC50 by modified Cheng-Prussoff equation
Give me the value, and tack the unit on after it.

For orientation, consider the following solved cases.
Cc1cc(C[C@H]2OC(=O)c3cnc4c(c3)C[C@@]3(C4)C(=O)Nc4ncc(cc43)/C=C/COCCOCCN(C)C2=O)cc2cn[nH]c12 [Example 4-1] : 0.2 nM
Cc1cc(C[C@H]2NC(=O)c3cnc4c(c3)C[C@@]3(C4)C(=O)Nc4ncc(cc43)/C=C/COCCOCCN(C)C2=O)cc2cn[nH]c12 [Example 1-1] : 0.251 nM
Cc1cc(C[C@H]2NC(=O)c3ccc4c(c3)C[C@]3(C4)C(=O)Nc4ncc(cc43)/C=C/COCCCN(C)C2=O)cc2cn[nH]c12 [Example 3-3] : 0.794 nM
Cc1cc(C[C@H]2NC(=O)c3cc4c(cn3)C[C@@]3(C4)C(=O)Nc4ncc(cc43)/C=C/COCCOCCN(C)C2=O)cc2cn[nH]c12 [Example 2-2] : 0.794 nM
Cc1cc(C[C@@H]2NC(=O)c3cnc4c(c3)C[C@@]3(C4)C(=O)Nc4ncc(cc43)/C=C/COCCOCCN(C)C2=O)cc2cn[nH]c12 [Example 1-3] : 10 nM
Cc1cc(C[C@H]2NC(=O)c3cc4c(cn3)C[C@@]3(C4)C(=O)Nc4ncc(cc43)/C=C/CN(C)CCCCCN(C)C2=O)cc2cn[nH]c12 [Example 2-3] : 1.26 nM
Cc1cc(C[C@H]2OC(=O)N3CCC4(CC3)OC(=O)Nc3ncc(cc34)/C=C/COCCOCCOCCN(C)C2=O)cc2cn[nH]c12 [Example 7-2] : 2 nM
Cc1cc(C[C@H]2NC(=O)c3ccc4c(c3)C[C@@]3(C4)C(=O)Nc4ncc(cc43)CCCOCCOCCN(C)C2=O)cc2cn[nH]c12 [Example 3-10] : 7.94 nM
Cc1cc(C[C@H]2OC(=O)N3CCC4(CC3)OC(=O)Nc3ncc(cc34)/C=C/COCCCCCN(C)C2=O)cc2cn[nH]c12 [Example 7-3] : 1.26 nM
Cc1cc(C[C@H]2NC(=O)c3cc4c(cn3)C[C@]3(C4)C(=O)Nc4ncc(cc43)/C=C/COCCOCCN(C)C2=O)cc2cnn(C)c12 [Example 2-4] : 25.1 nM

# input compound: Cc1cc(C[C@H]2NC(=O)c3cc4c(cn3)C[C@@]3(C4)C(=O)Nc4ncc(cc43)/C=C/CN(C)CCCCCN(C)C2=O)cc2cnn(C)c12 [Example 2-8] ; wanted: its Kb
2 nM

Now try Cc1cc(C[C@H]2OC(=O)c3ccc4c(c3)C[C@@]3(C4)C(=O)Nc4ncc(cc43)/C=C/COCCOCCN(C)C2=O)cc2cn[nH]c12 [Example 5-2] .
0.398 nM

====

# experimental target: human CGRP receptor (Homo sapiens, UniProt O60894+Q16602)
# Construct: SK-N-MC endogenously expressing the human CGRP receptor; endogenous in cells; host or cells: SK-N-MC human neuroblastoma cells
# protocol notes: cAMP functional assay (HTRF cAMP dynamic-2) in SK-N-MC cells
# Assay type: cell-based
# run conditions: SK-N-MC cells endogenously expressing human CGRP receptor; challenge with EC80 human CGRP (0.3 nM); functional pKb converted from pIC50 by modified Cheng-Prussoff equation
Label Criterion met when Kb is at or above 0.6 nM; otherwise label Criterion not met.

Cc1cc(C[C@H]2OC(=O)N3CCC4(CC3)OC(=O)Nc3ncc(cc34)CCCOCCOCCCN(C)C2=O)cc2cn[nH]c12 [Example 7-7] : Criterion met
Cc1cc(C[C@H]2NC(=O)c3cnc4c(c3)C[C@@]3(C4)C(=O)Nc4ncc(cc43)/C=C/COCCOCCOCCN(C)C2=O)cc2cn[nH]c12 [Example 1-4] : Criterion not met
Cc1cc(C[C@H]2NC(=O)c3cnc4c(c3)C[C@@]3(C4)C(=O)Nc4ncc(cc43)/C=C/COCCCCCN(C)C2=O)cc2cn[nH]c12 [Example 1-6] : Criterion not met
Cc1cc(C[C@H]2NC(=O)c3ccc4c(c3)C[C@]3(C4)C(=O)Nc4ncc(cc43)/C=C/COCCNCCN(C)C2=O)cc2cn[nH]c12 [Example 3-6] : Criterion not met
Cc1cc(C[C@H]2NC(=O)c3cnc4c(c3)C[C@@]3(C4)C(=O)Nc4ncc(cc43)CCCOCCOCCN(C)C2=O)cc2cn[nH]c12 [Example 1-8] : Criterion met

Quick check, Kb >= 0.6 nM? Cc1cc(C[C@H]2NC(=O)c3ccc4c(c3)C[C@]3(C4)C(=O)Nc4ncc(cc43)/C=C/COCCOCCN(C)C2=O)cc2cn[nH]c12 [Example 3-2]
Criterion met
